# RUN DESCRIPTION: Pharmacokinetic experiment (blood concentration by HPLC)
# Format: in vivo, mice
# EXPERIMENTAL PARAMETERS: male, mouse, blood, other: injection, 20 mg/kg, Injection, time 40 min, read-out: average conc.
PARAMETER: concentration at 40 min (ng/mL)
I only need the number, in ng/mL, no unit after it.

Request the reported concentration at 40 min associated with CO/N=C(\C(=O)NC1C(=O)N2C(C(=O)O)=C(Sc3cc(N)nc(N)n3)CSC12)c1csc(N)n1 (stereo not shown)
9800

====

# RUN DESCRIPTION: Pharmacokinetic experiment (blood concentration by HPLC)
# Format: in vivo, mice
# EXPERIMENTAL PARAMETERS: male, mouse, blood, po, 20 mg/kg, Oral administration, time 90 min, read-out: average conc.
PARAMETER: concentration at 90 min

Request the reported concentration at 90 min associated with CO/N=C(\C(=O)NC1C(=O)N2C(C(=O)O)=C(Sc3cc(N)nc(N)n3)CSC12)c1csc(N)n1 (stereo not shown)
570 ng/mL

====

# RUN DESCRIPTION: Pharmacokinetic experiment (blood concentration by HPLC)
# Type: in vivo, mice
# EXPERIMENTAL PARAMETERS: male, mouse, blood, intravenous, 20 mg/kg, Injection, time 240 min, read-out: average conc.
PARAMETER: concentration at 240 min (ng/mL)
I only need the number, in ng/mL, no unit after it.

Request the reported concentration at 240 min associated with CO/N=C(\C(=O)NC1C(=O)N2C(C(=O)O)=C(Sc3cc(N)nc(N)n3)CSC12)c1csc(N)n1 (stereo not shown) [Compound No. 25]
400

====

# RUN DESCRIPTION: Pharmacokinetic experiment (blood concentration by HPLC)
# Format: in vivo, mice
# EXPERIMENTAL PARAMETERS: male, mouse, blood, po, 20 mg/kg, Oral administration, time 5 min, read-out: blood concentration, mouse-3
PARAMETER: concentration at 5 min (ng/mL)
I only need the number, in ng/mL, no unit after it.

Request the reported concentration at 5 min associated with CO/N=C(\C(=O)NC1C(=O)N2C(C(=O)O)=C(Sc3cc(N)nc(N)n3)CSC12)c1csc(N)n1 (stereo not shown)
60

====

# RUN DESCRIPTION: Pharmacokinetic experiment (blood concentration by HPLC)
# Assay type: in vivo, mice
# EXPERIMENTAL PARAMETERS: male, mouse, blood, po, 20 mg/kg, Oral administration, time 240 min, read-out: blood concentration, mouse-2
PARAMETER: concentration at 240 min (ng/mL)
I only need the number, in ng/mL, no unit after it.

Request the reported concentration at 240 min associated with CO/N=C(\C(=O)NC1C(=O)N2C(C(=O)O)=C(Sc3cc(N)nc(N)n3)CSC12)c1csc(N)n1 (stereo not shown) [Compound No. 25]
220

====

# RUN DESCRIPTION: Pharmacokinetic experiment (blood concentration by HPLC)
# Format: in vivo, mice
# EXPERIMENTAL PARAMETERS: male, mouse, blood, other: injection, 20 mg/kg, Injection, time 90 min, read-out: blood concentration, mouse-1
PARAMETER: concentration at 90 min
I'd appreciate it if you wrote the number followed by its unit.

Request the reported concentration at 90 min associated with CO/N=C(\C(=O)NC1C(=O)N2C(C(=O)O)=C(Sc3cc(N)nc(N)n3)CSC12)c1csc(N)n1 (stereo not shown) [Compound No. 25]
4300 ng/mL
